Hello, the source for this data is patent US20240148821A1, in case you need it.

Molecular target: protein-protein interaction between Kras and SOS1 (biotin-tagged human Kras loaded with GDP, His-tagged human SOS1) (Homo sapiens (Human), UniProt P01116, G12D)
Assay: Protein-protein interaction inhibition between Kras and SOS1 (KrasG12D-SOS PPI) using AlphaScreen;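 further: kras produced in E. coli, Ni-coupled donor beads and streptavidin acceptor beads, excitation 680 nm with emission detected at 520–620 nm via singlet oxygen transfer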
Assay type: biochemical
Conditions: AlphaScreen; biotin-tagged human Kras loaded with GDP, His-tagged human SOS1; read-out: KRAS G12D-SOS PPI IC50
Numbered stars: 1 amine (or outer) side, 2 acyl side, 3 side chain; on linkers, the order of the positions; unused ones are H or OH. Bridge positions count the residues as written; N and C are the ends. Square brackets hold non-standard residues; d marks the D form. Peptide text beside a SMILES is read from it. * marks the point of attachment. hPhe(3-Cl-4-CF3) = N[C@@H](CCc1ccc(C(F)(F)F)c(Cl)c1)C(=O)O; NMedβ3hAla = C[C@H](CC(=O)[*:2])N(C)[*:1]; NMeGly(cBu) = CN[C@H](C(=O)O)C1CCC1; NMeCha = CN[C@@H](CC1CCCCC1)C(=O)O; Hyp = O=C(O)[C@@H]1C[C@@H](O)CN1; NMeChg = CN[C@H](C(=O)O)C1CCCCC1; NMeD = CN[C@@H](CC(=O)O)C(=O)O; NMeL = CN[C@@H](CC(C)C)C(=O)O; NPhGly = O=C(O)CNc1ccccc1; NMeA = CN[C@@H](C)C(=O)O; NMeAib = CNC(C)(C)C(=O)O; Piperidide = C1CCN(*)CC1; Ac5c = NC1(C(=O)O)CCCC1; Ethyl(2-OH) = OCC*; Sar = CNCC(=O)O
The reader will find reported IC50 values listed item by item below.

COMPOUND	IC50
CC[C@H](C)[C@@H]1NC(=O)[C@H](CC(C)C)N(C)C(=O)C[C@@H](C(=O)N2CCCCC2)N(C)C(=O)[C@H](C2CCCCC2)N(C)C(=O)C2(CCCC2)NC(=O)[C@@H]2C[C@@H](OCCO)CN2C(=O)[C@H](CCc2ccc(C(F)(F)F)c(Cl)c2)NC(=O)CN(C)C(=O)[C@H](CC2CCCCC2)N(C)C(=O)CN(C)C(=O)CN(C)C1=O [Compound 2122] ([NMeL]I[Sar][Sar][NMeCha][Sar][hPhe(3-Cl-4-CF3)][Hyp](Ethyl(2-OH))[Ac5c][NMeChg][NMeD]-Piperidide; lactam N-11)	0.46 nM
CC[C@H](C)[C@@H]1NC(=O)[C@H](C)N(C)C(=O)C[C@@H](C)N(C)C(=O)[C@H](C2CCC2)N(C)C(=O)C(C)(C)N(C)C(=O)CN(c2ccccc2)C(=O)[C@H](CCc2ccc(C(F)(F)F)c(Cl)c2)NC(=O)CN(C)C(=O)[C@H](CC2CCCCC2)N(C)C(=O)CN(C)C(=O)CN(C)C1=O [Compound 2145] (cyclo(I[Sar][Sar][NMeCha][Sar][hPhe(3-Cl-4-CF3)][NPhGly][NMeAib][NMeGly(cBu)][NMedβ3hAla][NMeA]))	22 nM
